# ASSAY_DETAILS: qHTS RealTime-Glo MT Cell Viability Assay in HepG2 cells - 0 hour (AID 1224889); further: nearly all actives have a fitted effect of over 50% in size
# CONDITIONS: RealTime-Glo luminescence; series mostly up to 76.8 µM
Inconclusive results are not listed. Active and inactive are the calls of the source. The call rests on the fitted dose curve; in most records, active means well fitted cell-killing curve with a large enough effect in the repeat runs; inconclusive means weak or mixed curves, or effect the other way; inactive means flat fitted curve, though single readings scatter.
Field 'call' accepts active, inactive

Answered cases to consult:
> print(dat)
                                    compound  assigned.class
 1  COc1cc(C(=O)OCCCN2CCCN(CCCOC(=O)c3cc(OC)c(OC)c(OC)c3)CC2)cc(OC)c1OC        inactive
 2        NS(=O)(=O)c1ccc(N2CCCCS2(=O)=O)cc1        inactive
 3     CCCn1cnc2c1c(=O)n(CCCCC(C)=O)c(=O)n2C        inactive
 4                              ClCCOCCOCCCl        inactive
 5                       Cc1ncc(CO)c(C=O)c1O        inactive
 6                         CC/C=C\CCOC(=O)CC        inactive
 7         Nc1ccc([N+](=O)[O-])c(C(F)(F)F)c1        inactive
 8               CCCCCCCCCCCCCCCCOS(=O)(=O)O        inactive
 9                   Nc1cccc([N+](=O)[O-])c1        inactive
10  CC(C)OC(=O)C(C)N(C(=O)c1ccccc1)c1ccc(F)c(Cl)c1 (stereo not given)        inactive

[ask] For this compound, state the assay outcome: Cc1oc2c(NC(=O)c3c(Cl)cccc3Cl)cccc2c1C(C)(C)O
[reply] inactive

[ask] For this compound, state the assay outcome: Cc1cccc(C)c1NC(=O)CN(CC(=O)O)CC(=O)O
[reply] inactive

[ask] For this compound, state the assay outcome: CC(=O)NO
[reply] inactive

[ask] For this compound, state the assay outcome: CC(C)(C)OCC1CO1 (stereo not given)
[reply] inactive

[ask] For this compound, state the assay outcome: Nc1ncn([C@H]2C[C@H](O)[C@@H](CO)O2)c(=O)n1
[reply] inactive

[ask] For this compound, state the assay outcome: CN(C)c1ccc(C(c2ccccc2)c2ccc(N(C)C)cc2)cc1
[reply] inactive

[ask] For this compound, state the assay outcome: CCc1cc(C2=C(C(=O)O)N(c3ccccc3C(F)(F)F)S(=O)(=O)c3ccccc32)cc2c1OCO2
[reply] active

[ask] For this compound, state the assay outcome: Nc1cc(C(=O)O)c(O)c(S(=O)(=O)O)c1
[reply] inactive

[ask] For this compound, state the assay outcome: CC1CCC(=O)C1=O (stereo not given)
[reply] inactive

[ask] For this compound, state the assay outcome: C1CCCNCCC1
[reply] inactive

[ask] For this compound, state the assay outcome: CCCC(=O)Nc1ccc(O)c(C(C)=O)c1
[reply] inactive

[ask] For this compound, state the assay outcome: N=c1ccn2c(n1)O[C@H]1[C@H](O)[C@@H](CO)O[C@H]12
[reply] inactive

[ask] For this compound, state the assay outcome: O=[N+]([O-])c1ccc(NCCO)c(OCCO)c1
[reply] inactive

[ask] For this compound, state the assay outcome: CC(=O)c1ccc2c(c1)N(CCCN(C)C)c1ccccc1S2
[reply] inactive

[ask] For this compound, state the assay outcome: Cc1c(N)cccc1[N+](=O)[O-]
[reply] inactive
